Test system: ACHN renal
Experiment: NCI tumour cell line growth inhibition, 48 h
Recorded TGI by entry

Q) Give recorded TGI with ACHN renal for the following molecule: Cc1[nH]c2ccccc2c1/C=C/c1c(C)[nH]c2ccccc12
A) > 100 µM

Q) Query C#CC(O)/C=C/C(O)CCCC(O)CC#CC(O)C#CCCCCC(O)/C=C/CCCCCC(=O)CCCCCCCCCCCCCC(O)C(O)C#CC(=O)O (centres undefined) next
A) > 25 µM

Q) What about this molecule? CC(O)C1(O)C(O)CC(OC2c3cc4c(c(O)c3[C@@H]3C[C@@]2(C)OC32C=c3cc[nH]c3=N2)C(=O)c2cccc(O)c2C4=O)OC1C (some centres undefined)
A) 4.04 µM

Q) Then what about the molecule O=S(=O)(N=[Se](=O)(c1ccccc1)c1ccccc1)c1ccccc1 ?
A) > 100 µM

---

Test system: A549 NSCLC
Test: NCI tumour cell line growth inhibition, 48 h
ENDPOINT LABEL: TGI (µM)
Reply with just the number (in µM).

>>> obs_value("Nc1nc(N)c2c(Cl)c(CNc3ccc(Cl)c(Cl)c3)ccc2n1")
14.5

Q) Looking for the measured TGI of O=C(Cn1c2ccc(Br)cc2c2nc3ccccc3nc21)NNC(=O)NC1CCCCC1 , can you help?
A) 41.7

---

Recorded TGI by entry
Tested on: SK-OV-3 ovarian
Assay: NCI tumour cell line growth inhibition, 48 h

Reference set (3 entries):
>>> obs_value("COc1ccc(N=Nc2c(-c3ccccc3)nn(C(=O)CC(=O)Nc3ccc(OC)cc3)c2-c2ccccc2)cc1")
"> 100 µM"
>>> obs_value("CC1(C)COC(c2cccc(C(O)c3ccc(Cl)cc3)c2)=N1 (centres undefined)")
"65.1 µM"
>>> obs_value("COc1ncnc2c(Cl)c(C(O)c3ccccc3)c(Cl)cc12 (centres undefined)")
"49 µM"

Q) Any idea what its TGI is? The compound is Cc1cc(NS(=O)(=O)c2ccc(-c3cnc(C4CC4)o3)cc2)ccc1Cl
A) 20.8 µM

Q) Request: Fc1ccc(C2CC(c3cccc(Nc4ccncc4)c3)=NN2c2ccccc2)cc1 (centres undefined)
A) 19.9 µM

Q) Another compound to check: CN(C)C12C=CC=CC3=C(c4ccccc4)C(c4ccccc4)=C(c4ccccc4)C31c1ccccc1C2 (centres undefined)
A) > 100 µM

---

Tested on: U251 CNS
Assay: NCI tumour cell line growth inhibition, 48 h
A collection of compounds and their measured TGI

Below, 3 compounds whose answers are already recorded.
>>> obs_value("CC(=O)OC1CCn2c1nc1c2C(=O)C=C(N2CC2)C1=O (centres undefined)")
"0.853 µM"
>>> obs_value("CC1=CP(=O)(OC(C)C)C=C(C)C1=C(Cl)Cl (centres undefined)")
"> 100 µM"
>>> obs_value("Nc1nc(N)c(N=Nc2ccccc2)c(=O)[nH]1")
"> 100 µM"

Q) For O=C1NC(=S)NC(=O)C1=Cc1ccc([N+](=O)[O-])o1 , what is its reported TGI?
A) > 100 µM

---

TGI for assorted compounds
System: HL-60(TB) leukemia
Experiment: NCI tumour cell line growth inhibition, 48 h
Reply with just the number (in µM).

Reference set (3 entries):
>>> obs_value("O=C(CCl)N1CCN(c2ccccc2)CC1")
41.2
>>> obs_value("Oc1ccc(/C=N/NC(=S)Nc2ccccc2)nc1")
6.77
>>> obs_value("CC(=O)OC1CCn2c1nc1c2C(=O)C=C(N2CC2)C1=O (stereo not given)")
0.494

Kindly review the next compound as well.
Q) Give its TGI value. Item: CN1C(=O)[C@@H](CC2CCCC2)N(C2CCCC2)c2nc(Nc3cc(Cl)c(O)c(Cl)c3)ncc21
A) 58.1

---

Recorded TGI by entry
Test system: IGROV1 ovarian
Assay: NCI tumour cell line growth inhibition, 48 h

These recorded examples may help you get a feel for the data.
>>> obs_value("O=C(O)c1cc(-c2ccc(-c3ccccc3)cc2)nc2cc3ccccc3cc12")
"> 100 µM"
>>> obs_value("C=C1C(=O)O[C@H]2C(=O)[C@H](C)CCC/C(C)=C/CC[C@@]3(C)O[C@@H]3C[C@@H]12")
"10.2 µM"
>>> obs_value("Cc1ccc(NC(=O)CC(=O)N2N=C(N(c3ccccc3)c3ccccc3)CC2c2ccccc2)cc1 (stereo not given)")
"> 100 µM"
>>> obs_value("COc1ccc(-c2cc(-c3ccc(Cl)cc3)nc(SCCCC(=O)NO)n2)cc1OC")
"2.69 µM"

Q) Looking for the measured TGI of O=C(O)CCC1C(=O)C2CCN1CC2 (stereo not given) , can you help?
A) > 100 µM

---

System: TK-10 renal
Experiment: NCI tumour cell line growth inhibition, 48 h
Listed next: entries and their corresponding GI50.

Completed entries (count: 4):
>>> obs_value("Cc1ccc(/C=C(/C#N)n2nnc3cccc(F)c32)cc1")
"1.22 µM"
>>> obs_value("CN1C(=O)[C@@H](CC2CCCC2)N(C2CCCC2)c2nc(Nc3cc(Cl)c(O)c(Cl)c3)ncc21")
"27.2 µM"
>>> obs_value("Oc1c(Cl)cc(Cl)c(Cl)c1Cc1c(O)c(Cl)cc(Cl)c1Cl")
"3.04 µM"
>>> obs_value("CN1CCN(CCCCCOc2cc(O)c3c(=O)cc(-c4ccccc4)oc3c2)CC1")
"12 µM"

Q) Can you look up the measured GI50 of Cn1cc(Nc2nccc(-c3ccc4c(c3)CN(C3COC3)CC[C@H]4NC(=O)c3cn(C(C)(C)C)nn3)n2)cn1 for me?
A) 59.5 µM

Q) Another molecule: COc1cc(C2C=C(C)N=C3SC=C(C)N32)cc(OC)c1OC (stereo not drawn)
A) 2.22 µM

Q) Could you do the same for CN1CCC(=C(c2ccc(Cl)cc2)c2ccccn2)CC1 , please?
A) > 100 µM

Q) Note, next up: CCN(CC)CCOc1ccc2c(-c3ccccc3)c(-c3ccc(OC)cc3)c(=O)oc2c1
A) 11.6 µM

Q) Another molecule: O=C(NNC1=NS(=O)(=O)c2ccccc2N1c1ccccc1)c1cnccn1
A) > 100 µM

Q) How about this molecule: N#C/C(=C\c1ccc(O)c(O)c1)C(=O)NCc1cccc(C(F)(F)F)c1
A) 1.31 µM

---

# key: entry, value: TGI
System: MDA-MB-231 breast
Experiment: NCI tumour cell line growth inhibition, 48 h

>>> obs_value("O=C(CC(O)(C(F)(F)F)C(F)(F)F)c1cccs1")
"> 10 µM"
>>> obs_value("COc1cc(C(=O)/C=C/c2cccnc2Nc2ccc(Cl)cc2)cc(OC)c1OC")
"3.12 µM"
>>> obs_value("CN(C)C12C=CC=CC3=C(c4ccccc4)C(c4ccccc4)=C(c4ccccc4)C31c1ccccc1C2 (stereo unspecified)")
"> 100 µM"
>>> obs_value("O=[N+]([O-])c1ccc(C2=NOC(c3ccccc3)N2C23CC4CC(CC(C4)C2)C3)cc1 (stereo unspecified)")
"> 100 µM"
>>> obs_value("O=C(O[C@H](/C=C/c1ccccc1)P1(=O)N(Cc2ccccc2)[C@H]2CCCC[C@@H]2N1Cc1ccccc1)c1ccccc1")
"25.7 µM"

Q) Entry under review: Cc1cc2c(cc1Cl)SC(NNC(=O)c1ccccc1)=NS2(=O)=O . Reported TGI?
A) > 10 µM

Q) Please answer likewise for Cc1ccc(S(=O)(=O)NC(=O)NC(CCCCN)C(=O)O)cc1 (stereo unspecified)
A) > 100 µM

Q) Next compound up: NC(=O)NC(=O)Nc1ccc(Br)cc1
A) > 42.1 µM

Q) Proceed to COc1cc2c3c(n(CCCNCCCCN)c(=O)c2cc1OC)-c1cc2c(cc1C3=O)OCO2
A) 9.13 µM

Q) Same lookup for C=C(CC)C(=O)c1ccc(OCC(=O)O)c(Cl)c1Cl , please.
A) 34.6 µM

---

Entries annotated with measured GI50
Tested on: HCT-116 colon
Assay: NCI tumour cell line growth inhibition, 48 h

The following molecules have reported results that may help.
>>> obs_value("COc1cc2c3c(n(CCCNCCCCN)c(=O)c2cc1OC)-c1cc2c(cc1C3=O)OCO2")
"1.85 µM"
>>> obs_value("COC(=O)COc1ccccc1/C=C1/N=C(c2ccccc2)N(c2c(C)n(C)n(-c3ccccc3)c2=O)C1=O")
"> 100 µM"
>>> obs_value("Fc1ccc(C2CC(c3cccc(Nc4ccncc4)c3)=NN2c2ccccc2)cc1 (configuration not stated)")
"1.49 µM"

Q) Which GI50 is listed for COc1cc(C(=O)/C=C/c2cccnc2Nc2ccc(Cl)cc2)cc(OC)c1OC ?
A) 0.568 µM

---

System: SK-OV-3 ovarian
Test: NCI tumour cell line growth inhibition, 48 h; in the data active means GI50 below about 0.43 µM; inactive means the rest
Classes to choose from: Yes for active, No for inactive

Consider the following illustrative entries.
>>> group_label("CCN1C[C@@H](C)n2c(c(O)c3c(=O)n(Cc4ccc(F)c(Cl)c4)nc(C(=O)NC)c32)C1=O")
"No"
>>> group_label("CC(=O)NC(CCc1ccc(Cl)c(Cl)c1)c1cccc(O)c(=O)c1 (stereo not given)")
"No"
>>> group_label("COc1cc2c3c(n(CCCNCCCCN)c(=O)c2cc1OC)-c1cc2c(cc1C3=O)OCO2")
"No"

Q) // outcome(item) with item = CC[C@@]1(O)C(=O)OCc2c1cc1n(c2=O)Cc2cc3cc(O)ccc3nc2-1
A) Yes

Q) Same question for CN1C(=O)[C@@H](CC2CCCC2)N(C2CCCC2)c2nc(Nc3cc(Cl)c(O)c(Cl)c3)ncc21 please.
A) No
